Tested on: C. tropicalis ATCC 750
PROTOCOL DETAILS: Antifungal susceptibility, broth dilution MIC (CLSI M27-A2)
Type: cell-based, Candida tropicalis
ASSAY CONDITIONS: Candida tropicalis, ATCC750; C. tropicalis ATCC 750; broth dilution, RPMI 1640 with MOPS, 48 hours; read-out: Activity against organisms (MIC50) Ct01
Below, each entry is listed with its recorded MIC50.

| COMPOUND | MIC50 |
| --- | --- |
| CCCCN1CCN(c2ccc(C(C)=O)cc2)CC1 [Compound 11A-2] | > 64 µg/mL |
| C#CCOc1ccc(/C=C/C(=O)c2ccc(N3CCN(CCCC)CC3)cc2)cc1 | > 4 µg/mL |
| O=C(/C=C/c1ccc(O)cc1)c1ccc(O)cc1 | > 32 µg/mL |

Here's the next entry for you.
The reported MIC50 of the compound COc1ccc(C(=O)/C=C/c2cccs2)cc1 [Compound 10A-2] was > 8 µg/mL
